Values compiled from PubChem BioAssay AID330.

Consider the following molecules and their measured T/C readings.
test system: P388 leukemia ip, CD2F1 mice, survival T/C; test: NCI In Vivo Anticancer Drug Screen. Data for tumor model P388 Leukemia (intraperitoneal) in CD2F1 (CDF1) mice; settings: endpoint: median survival time; dose: 100.0 mg/kg/injection; schedule: Q04DX003 (ip); vehicle: saline with Tween-80; higher = longer survival
Inconclusive results and toxic doses are left out.

> print(dat)
                                   molecule    observed.value
1         O=C(CCCCl)CC(O)(C(F)(F)F)C(F)(F)F  110 % of control
2                 CN(C)P(=S)(N(C)C)N1CCOCC1   88 % of control
3  C[C@]12CCC(=O)C=C1CC[C@@H]1[C@@H]2[C@@H](O)C[C@@]2(C)[C@H]1CC[C@]2(O)C(=O)CF  109 % of control
4             Oc1ccc2ccccc2c1N=Nc1ccc(F)cc1  100 % of control
5  CC1CN1P(=S)(Oc1ccccc1)N1CC1C (stereo unspecified)  109 % of control

Query string: Item C=C1C(=O)OC2C1CCC(C)=C1C(=O)C=C(C)C12 (stereo unspecified) has what recorded T/C?
Result string: 116 % of control

Query string: And what about the molecule CCN(CC)CCOc1ccc(C2=C(c3ccccc3)CCc3cc(OC)ccc32)cc1 ?
Result string: 100 % of control

Query string: What do we get for CC(C)(C)N1OC1c1ccccc1 (stereo unspecified) ?
Result string: 108 % of control

###

tested on: P388 leukemia ip, CD2F1 mice, survival T/C; test: NCI In Vivo Anticancer Drug Screen. Data for tumor model P388 Leukemia (intraperitoneal) in CD2F1 (CDF1) mice; conditions: endpoint: median survival time; dose: 200.0 mg/kg/injection; schedule: Q01DX001 (ip); vehicle: saline with Tween-80; higher = longer survival
Inconclusive results and toxic doses are left out.
Property Measured: T/C

Examples with their reported T/C follow.
> print(dat)
                                   compound  property.measured   observed.value
1  COc1ccc(/C=N/N=c2/sc3ccccc3n2CC(=O)O)cc1                T/C  87 % of control
2  CN1C(=O)n2c(nc3ccccc32)C(N2CCOCC2)(N2CCOCC2)C1=O                T/C  96 % of control

Query string: Any idea what T/C came out for COC(CNC(c1ccccc1)C(O)c1ccccc1)(OC)OC (stereo not drawn) on P388 leukemia ip, CD2F1 mice, survival T/C?
Result string: 97 % of control

###

Examples of compounds with documented T/C follow.
test system: P388 leukemia ip, CD2F1 mice, survival T/C; assay: NCI In Vivo Anticancer Drug Screen. Data for tumor model P388 Leukemia (intraperitoneal) in CD2F1 (CDF1) mice; settings: endpoint: median survival time; dose: 200.0 mg/kg/injection; schedule: Q01DX009 (ip); vehicle: suspension in saline; higher = longer survival
Toxic doses and inconclusive results are not listed.

Worked cases, T/C given:
> print(dat)
                                   compound  property.measured    observed.value
1   S=C(Nc1ccc(Br)c(Cl)c1)SCc1ccc2c(c1)OCO2                T/C  116 % of control
2  C=C1SC(=Nc2c(C)cc(C)cc2C)N(C(=O)c2sc3ccccc3c2Cl)C12CCCCC2                T/C   91 % of control
3   O=C1CSC(=S)N1c1ccc(Cl)c([N+](=O)[O-])c1                T/C   86 % of control

Query string: What T/C value was documented for this compound, OC(Cc1ccccc1)c1ccccc1 (centres undefined) ?
Result string: 98 % of control

###

T/C values by entry
system: P388 leukemia ip, CD2F1 mice, survival T/C; assay: NCI In Vivo Anticancer Drug Screen. Data for tumor model P388 Leukemia (intraperitoneal) in CD2F1 (CDF1) mice; details: endpoint: median survival time; dose: 200.0 mg/kg/injection; schedule: Q01DX005 (ip); vehicle: Klucel (hydroxypropylcellulose) (HPC); higher = longer survival
Inconclusive results and toxic doses are left out.

// worked examples, T/C included
> print(dat)
                                   molecule    observed.value
1  COC(=O)c1c(/C(=N/Nc2ccc([N+](=O)[O-])cc2)[N+](=O)[O-])ssc1=N  103 % of control
2  CC(O)C(C(c1ccccc1)N1CCOCC1)N1CCOCC1 (stereo not given)   98 % of control
3  COc1ccc(C(=O)N2C3C4C=CC(C4)C3N2C(=O)c2ccc(OC)cc2)cc1 (stereo not given)   88 % of control
4  COc1c(I)c2c(c([N+](=O)[O-])c1OC)C(=O)OC2C1c2c(cc3c(c2OC)OCO3)CCN1C (stereo not given)   91 % of control
5  CC(N)C(=O)NC(C)C(=O)NC(C)C(=O)O (stereo not given)  101 % of control
6  Cc1ccc(N=C(c2ccccc2)C2C(=O)c3ccccc3C2=O)cc1   94 % of control

--- query ---
Query string: Recorded T/C of CN1C(=O)NC(=O)C(=C2C=C(c3ccccc3)C(C#N)(c3ccccc3)C(c3ccccc3)=C2)C1=O (stereo not given) , please.
Result string: 101 % of control

###

The reader will find reported T/C values listed item by item below.
tested on: P388 leukemia ip, CD2F1 mice, survival T/C; assay: NCI In Vivo Anticancer Drug Screen. Data for tumor model P388 Leukemia (intraperitoneal) in CD2F1 (CDF1) mice; conditions: endpoint: median survival time; dose: 400.0 mg/kg/injection; schedule: Q04DX003 (ip); vehicle: saline; higher = longer survival
Inconclusive results and toxic doses are left out.

Check out these entries, answers already filled in.
> print(dat)
                                   molecule    observed.value
1         CNC(=S)N/N=C(C)\C=N/Nc1cccc(Cl)c1  100 % of control
2         CSC(=S)c1ccccc1NS(=O)(=O)c1ccccc1  108 % of control
3                         O=C(O)CCNCCC(=O)O   95 % of control
4                    O=CNNc1ccc2nnc(Cl)n2n1   93 % of control
5          CCOC(=O)c1cn2ccccc2c(C(C)=O)c1=N   94 % of control
6  CC1COCCOCCOCC(C)OC(=O)CSCC(=O)O1 (stereo not drawn)   92 % of control

Query string: # get_value(readout= T/C, system= P388 leukemia ip, CD2F1 mice, survival T/C) for CC1(C)CC(=O)C(C)(CCC#N)C(=O)C1
Result string: 99 % of control

Query string: For COc1cc2c(cc1O)-c1c(cnn1-c1ccc([N+](=O)[O-])cc1[N+](=O)[O-])CCC2 then?
Result string: 96 % of control

Query string: Also CC(C)(C)OC(=O)NC1CCC2CCCCC2C1 (stereo not drawn) ?
Result string: 100 % of control

###

T/C values, listed per item
system: P388 leukemia ip, CD2F1 mice, survival T/C; test: NCI In Vivo Anticancer Drug Screen. Data for tumor model P388 Leukemia (intraperitoneal) in CD2F1 (CDF1) mice; conditions: endpoint: median survival time; dose: 120.0 mg/kg/injection; schedule: Q01DX005 (ip); vehicle: Klucel (hydroxypropylcellulose) (HPC); higher = longer survival
Toxic doses and inconclusive results are not listed.

Examples from the recorded data:
> print(dat)
                                   compound                           measured.target  property.measured    observed.value
1  CC(C)c1ccc2nc3ccc(C(=O)NCCN(C)C)cn3c(=O)c2c1  P388 leukemia ip, CD2F1 mice, survival T/C                T/C  101 % of control
2            COC(=O)/C(=C\Sc1ccccc1)NC(C)=O  P388 leukemia ip, CD2F1 mice, survival T/C                T/C   98 % of control
3  CC1(c2ccccc2)Nc2ccccc2N(C(=O)c2ccccc2)C1c1ccccc1 (stereo not drawn)  P388 leukemia ip, CD2F1 mice, survival T/C                T/C   90 % of control

Query string: Value lookup for T/C; key = COc1ccc(/C=C2/C(=O)N(c3ccccc3)N=C2C)cc1
Result string: 104 % of control

Query string: Proceed to Cc1c(C2=C(Br)C(=O)N(C)C2=O)c(=O)n(C)c(=O)n1C
Result string: 118 % of control

Query string: Then what about the compound CCCC1(N2CCCC2)C(=O)NC(=O)N(CC)C1=O (stereo not drawn) ?
Result string: 93 % of control

Query string: Consider next the compound CCCN(C)CC(=O)NC(Cc1ccccc1)c1ccccc1 (stereo not drawn) in the same way.
Result string: 104 % of control

Query string: // next record O=C1c2ccccc2C(=O)N1Cc1cccc(I)c1
Result string: 94 % of control
